assay: Inhibition of Saccharomyces cerevisiae alpha-glucosidase
pIC50: −log10 of the molar value.
Threshold check on pIC50: at or above 5 gives Yes, strictly below gives No.

Consider the following illustrative entries.
{"columns": ["COMPOUND_STRUCTURE", "GROUP_LABEL"],
 "data": [
  ["Fc1ccc(Cn2cc(COC[C@H]3O[C@H](OCc4cn(Cc5ccc(F)cc5)nn4)[C@H](OCc4ccccc4)[C@@H](OCc4ccccc4)[C@@H]3OCc3ccccc3)nn2)cc1", "No"],
  ["O=c1ccc2cc(OCCCCCCn3cc(COC[C@H]4O[C@H](OCc5cn(CCCCCCOc6ccc7oc(=O)ccc7c6)nn5)[C@H](OCc5ccccc5)[C@@H](OCc5ccccc5)[C@@H]4OCc4ccccc4)nn3)ccc2o1", "No"],
  ["COc1ccc(OC)c(Cn2cc(COC[C@H]3O[C@H](OCc4cn(Cc5cc(OC)ccc5OC)nn4)[C@H](OCc4ccccc4)[C@@H](OCc4ccccc4)[C@@H]3OCc3ccccc3)nn2)c1", "Yes"],
  ["c1ccc(CO[C@@H]2[C@@H](OCc3ccccc3)[C@@H](OCc3cn(CCOc4ccccc4)nn3)O[C@H](COCc3cn(CCOc4ccccc4)nn3)[C@H]2OCc2ccccc2)cc1", "No"]
]}

Attention now shifts to the item below.
IN: In plain terms: is recorded pIC50 at least 5 for `CCCCCCCC/C=C\CCCCCCCCn1cc(COC[C@H]2O[C@H](OCc3cn(CCCCCCCC/C=C\CCCCCCCC)nn3)[C@H](OCc3ccccc3)[C@@H](OCc3ccccc3)[C@@H]2OCc2ccccc2)nn1` ?
OUT: No

###

assay: Inhibition of Saccharomyces cerevisiae alpha-glucosidase
pIC50: −log10 of the molar value.
Threshold check on pIC50: at or above 5 gives True, strictly below gives False.

{"columns": ["COMPOUND", "GROUP_LABEL"],
 "data": [
  ["O=C(Cn1cc(COC[C@H]2O[C@H](OCc3cn(CC(=O)OCc4ccc([N+](=O)[O-])cc4)nn3)[C@H](OCc3ccccc3)[C@@H](OCc3ccccc3)[C@@H]2OCc2ccccc2)nn1)OCc1ccc([N+](=O)[O-])cc1", "True"]
]}

IN: In plain terms: is recorded pIC50 at least 5 for C[C@H]1O[C@H](O[C@H]2[C@H](O)[C@@H](O)[C@@H](O[C@H]3[C@H](O)[C@@H](O)C(O)O[C@@H]3CO)O[C@@H]2CO)[C@H](O)[C@@H](O)[C@@H]1N[C@H]1C=C(CO)[C@@H](O)[C@H](O)[C@H]1O (some centres undefined) ?
OUT: False

IN: In plain terms: is recorded pIC50 at least 5 for `O=[N+]([O-])c1ccc(Cn2cc(COC[C@H]3O[C@H](OCc4cn(Cc5ccc([N+](=O)[O-])cc5)nn4)[C@H](OCc4ccccc4)[C@@H](OCc4ccccc4)[C@@H]3OCc3ccccc3)nn2)cc1` ?
OUT: False

###

assay: Inhibition of Saccharomyces cerevisiae alpha-glucosidase
IC50 values by entry
Give a bare numeral; the unit µM is implied.

See these solved cases before continuing.
{"columns": ["COMPOUND_STRUCTURE", "UNIT_SYMBOL", "ASSAY_RESULT"],
 "data": [
  ["O=C(Cn1cc(COC[C@H]2O[C@H](OCc3cn(CC(=O)Oc4cccc5ccccc45)nn3)[C@H](OCc3ccccc3)[C@@H](OCc3ccccc3)[C@@H]2OCc2ccccc2)nn1)Oc1cccc2ccccc12", "µM", 9.98],
  ["O=[N+]([O-])c1cccc(Cn2cc(COC[C@H]3O[C@H](OCc4cn(Cc5cccc([N+](=O)[O-])c5)nn4)[C@H](OCc4ccccc4)[C@@H](OCc4ccccc4)[C@@H]3OCc3ccccc3)nn2)c1", "µM", 22.9],
  ["c1ccc(CO[C@@H]2[C@@H](OCc3ccccc3)[C@@H](OCc3cn(CCOc4cccc5ccccc45)nn3)O[C@H](COCc3cn(CCOc4cccc5ccccc45)nn3)[C@H]2OCc2ccccc2)cc1", "µM", 29.4],
  ["Cc1ccc(OCCn2cc(COC[C@H]3O[C@H](OCc4cn(CCOc5ccc(C)cc5)nn4)[C@H](OCc4ccccc4)[C@@H](OCc4ccccc4)[C@@H]3OCc3ccccc3)nn2)cc1", "µM", 50.5],
  ["O=C1C=C(OCCCCCCn2cc(COC[C@H]3O[C@H](OCc4cn(CCCCCCOC5=CC(=O)Cc6ccccc65)nn4)[C@H](OCc4ccccc4)[C@@H](OCc4ccccc4)[C@@H]3OCc3ccccc3)nn2)c2ccccc2C1", "µM", 20.8]
]}

Then there is this compound:
In plain terms, `CC(C)[C@@H]1CC[C@@H](C)C[C@H]1OC(=O)Cn1cc(COC[C@H]2O[C@H](OCc3cn(CC(=O)O[C@@H]4C[C@H](C)CC[C@H]4C(C)C)nn3)[C@H](OCc3ccccc3)[C@@H](OCc3ccccc3)[C@@H]2OCc2ccccc2)nn1` has a documented IC50 of 3.73
